Every entry's value here was drawn from ChEMBL document CHEMBL1128214.

EXPERIMENT_DESCRIPTION: The half life time estimated was determined in an aqueous sodium hydroxide solution adjusted to pH 10 at 2.5 mg/kg dosage administered intravenously in rats
Format: ADME, organism-based
Set-up: dose 2.5 mg/kg, route intravenous
RUN_PARAMETERS: rat, in vivo, iv
MEASURED_METRIC: half-life (h)

INSERT INTO measurements (molecule, measured_metric, reported_measurement) VALUES
  ('N#Cc1ccc(S(=O)(=O)Nc2cccc(C(c3c(O)c4c(oc3=O)CCCCCC4)C3CC3)c2)cc1 (stereo unspecified)', 'half-life', 3);
